Just for reference, patent US8455475B2 is where these values come from.

molecular target: human B1R (bradykinin receptor 1) (Homo sapiens); construct: expressed in transfected cells; host or cells: CHO K1 cells; test: FLIPR Ca2+ assay (Fluo-4) on CHO K1 cells stably transfected with the human B1R gene (hB1R cells): % inhibition at 10 μM / IC50, agonist Lys-Des-Arg9-bradykinin; type: cell-based; conditions: CHO-K1, human B1R
Sequence (P46663 whole entry): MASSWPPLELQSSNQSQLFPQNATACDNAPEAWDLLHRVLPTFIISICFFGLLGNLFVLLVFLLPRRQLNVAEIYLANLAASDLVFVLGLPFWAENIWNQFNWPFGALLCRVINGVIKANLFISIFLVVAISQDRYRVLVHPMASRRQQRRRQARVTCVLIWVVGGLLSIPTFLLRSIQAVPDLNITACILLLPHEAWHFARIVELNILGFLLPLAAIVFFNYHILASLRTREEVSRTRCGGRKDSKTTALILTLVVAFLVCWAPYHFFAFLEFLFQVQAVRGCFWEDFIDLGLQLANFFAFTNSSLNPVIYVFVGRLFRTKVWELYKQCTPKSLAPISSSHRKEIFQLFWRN
Please respond with reported inhibition at 10 µM for every item in the list.
Kindly answer with a numeric value in %, unit omitted.

IN: Record request: inhibition at 10 µM value, item CC1(C)CC(NC(=O)NCc2ccccc2Cl)c2cc(C(=O)N3CCC4(CC3)CCN(c3ccncc3)CC4)ccc21 (centres unmarked)
OUT: 100

IN: Moving on to O=C(N[C@@H]1CCc2ccc(C(=O)N3CCC4(CCC(c5cccnc5)CC4)C3)cc21)c1ccccc1Cl (some centres unmarked)
OUT: 80

IN: Moving on to Cc1ccccc1S(=O)(=O)N[C@@H]1CCc2ccc(C(=O)N3CCC4(CCN(c5ccncc5)CC4)C3)cc21
OUT: 100

IN: Moving on to CC1(C)Cc2ccc(C(=O)N3CCC4(CC3)CCN(c3ccncc3)CC4)cc2C1NC(=O)c1sccc1Cl (centres unmarked)
OUT: 94

IN: Moving on to O=C(NCc1ccccc1Cl)NC1CCc2ccc(C(=O)N3CCC4(CCN(c5ccncc5)CC4)C3)cc21 (centres unmarked)
OUT: 100

IN: Moving on to CC1(C)CC(NS(=O)(=O)CCc2ccccc2Cl)c2cc(C(=O)N3CCC4(CC3)CCN(c3ccncc3)CC4)ccc21 (centres unmarked)
OUT: 100

IN: Moving on to O=C(N[C@@H]1CCCc2ccc(C(=O)N3CC4(CCN(c5ccncc5)CC4)C3)cc21)c1ccccc1Cl
OUT: 100

IN: Moving on to O=C(N[C@@H]1CCc2ccc(C(=O)N3CCC4(CCN(c5ccncc5)CC4)C3)cc21)c1ccccc1Cl
OUT: 100

IN: Moving on to O=C(NC1CCc2ccc(C(=O)N3CCC4(CCN(c5ccncc5)CC4)C3)cc21)c1ccc(F)cc1Cl (centres unmarked)
OUT: 100

IN: Moving on to O=C(NC1CCc2ccc(C(=O)N3CCC4(CC3)CCN(c3ccncc3)C4)cc21)c1ccc(Cl)s1 (centres unmarked)
OUT: 79

IN: Moving on to CC1(C)Cc2ccc(C(=O)N3CCC4(CC3)CCN(c3ccncc3)CC4)cc2C1NS(=O)(=O)Cc1ccccc1C(F)(F)F (centres unmarked)
OUT: 99

IN: Moving on to O=C(N[C@@H]1CCc2ccc(C(=O)N3CCC4(CCN(c5ccncc5)CC4)C3)cc21)c1cccc(F)c1Cl
OUT: 99

IN: Moving on to O=C(N[C@@H]1CCc2cc(C(=O)N3CCC4(CCN(c5ccncc5)CC4)C3)ccc21)c1ccccc1Cl
OUT: 100

IN: Moving on to CC1(C)CC(NC(=O)C(c2ccccc2)c2ccccc2Cl)c2cc(C(=O)N3CCC4(CC3)CCN(c3ccncc3)CC4)ccc21 (centres unmarked)
OUT: 41
